Data origin: patent US20260209362A1

Molecular target: T1, human IL-12Rβ2 (human, UniProt Q99665 24-862)
T1 construct: Expressed on HEK293T cells transiently transfected with a pcDNA3 plasmid (Genscript clone OHu21785); also called hIL-12RB2; IL-12 receptor β2 subunit
T1 sequence: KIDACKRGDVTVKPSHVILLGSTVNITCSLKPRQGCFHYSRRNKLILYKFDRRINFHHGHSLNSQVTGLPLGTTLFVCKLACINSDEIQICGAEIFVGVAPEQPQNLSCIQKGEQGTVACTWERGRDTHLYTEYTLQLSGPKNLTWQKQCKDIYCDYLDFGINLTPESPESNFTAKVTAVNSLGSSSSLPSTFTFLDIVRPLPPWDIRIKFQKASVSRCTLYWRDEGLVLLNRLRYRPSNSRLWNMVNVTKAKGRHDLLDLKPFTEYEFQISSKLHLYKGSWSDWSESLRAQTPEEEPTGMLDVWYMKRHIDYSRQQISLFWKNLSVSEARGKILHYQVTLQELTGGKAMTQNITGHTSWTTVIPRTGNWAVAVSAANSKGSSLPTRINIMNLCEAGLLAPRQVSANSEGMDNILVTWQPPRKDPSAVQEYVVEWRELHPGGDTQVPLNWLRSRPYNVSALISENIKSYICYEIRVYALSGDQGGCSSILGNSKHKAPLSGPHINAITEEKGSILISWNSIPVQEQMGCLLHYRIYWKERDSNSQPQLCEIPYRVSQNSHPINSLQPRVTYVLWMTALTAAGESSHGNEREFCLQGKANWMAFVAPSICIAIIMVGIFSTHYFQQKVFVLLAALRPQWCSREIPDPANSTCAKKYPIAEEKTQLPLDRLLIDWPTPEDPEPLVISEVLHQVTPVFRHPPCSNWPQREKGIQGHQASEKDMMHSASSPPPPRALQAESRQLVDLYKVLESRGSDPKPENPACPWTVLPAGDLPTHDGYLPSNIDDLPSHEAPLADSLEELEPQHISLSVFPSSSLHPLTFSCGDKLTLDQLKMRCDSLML
Assay: flow cytometry, P.E. on transfected HEK293T cells
Measurement Type: dMFI
Please give only the number in your answer, with no unit.

Field: example entries. Status: answers known.
| Binder | dMFI |
| --- | --- |
| anti-IL-12Rβ2 VHH clone 3CRH25 (VHH, not shown: small tags and cut ends, periplasmic extract) VHH: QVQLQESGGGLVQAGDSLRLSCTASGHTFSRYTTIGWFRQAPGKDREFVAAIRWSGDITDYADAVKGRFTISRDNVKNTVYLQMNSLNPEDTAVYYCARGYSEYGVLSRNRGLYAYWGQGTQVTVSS | 620 |
| anti-IL-12Rβ2 VHH clone 2CRHS4 (VHH, not shown: small tags and cut ends, periplasmic extract) VHH: QVQLQESGGGLVQPGGSLRLSCVSSQTLVGIEAMGWYRQAPGKQRELVALITLNGGTFYADSVKGRFTISRDVAGHMLYLEMNSLNPEDTAVYFCVAGVESDNEEPTYWGQGTQVTVSS | 254 |
| anti-IL-12Rβ2 VHH clone 3CRHS54 (VHH, not shown: small tags and cut ends, periplasmic extract) VHH: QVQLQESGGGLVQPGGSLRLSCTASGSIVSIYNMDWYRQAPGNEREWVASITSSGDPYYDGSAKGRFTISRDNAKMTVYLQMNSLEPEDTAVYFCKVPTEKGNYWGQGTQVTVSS | 970 |
| anti-IL-12Rβ2 VHH clone 3CAHS142 (VHH, not shown: small tags and cut ends, periplasmic extract) VHH: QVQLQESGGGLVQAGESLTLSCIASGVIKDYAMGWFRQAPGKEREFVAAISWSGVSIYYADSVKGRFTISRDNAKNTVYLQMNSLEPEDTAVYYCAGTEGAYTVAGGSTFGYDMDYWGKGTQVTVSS | 912 |
| anti-IL-12Rβ2 VHH clone 3CAHS124 (VHH, not shown: small tags and cut ends, periplasmic extract) VHH: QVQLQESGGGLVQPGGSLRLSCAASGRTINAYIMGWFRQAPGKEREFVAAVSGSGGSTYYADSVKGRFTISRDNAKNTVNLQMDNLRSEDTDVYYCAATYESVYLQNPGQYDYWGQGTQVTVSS | 1200 |
| anti-IL-12Rβ2 VHH clone 3CRHM240 (VHH, not shown: small tags and cut ends, periplasmic extract; also called 21065) VHH: QVQLQESGGGSVQAGGSLRLSCAVSGRTVSDYAMGWFRQAPGKEREFVVAMSSSETTVYTNSVKGRITISRDNAKNAVYLQMNALKPEDTAVYYCSMGPITTFQGLARQNEYHYWGQGTQVTVSS | 635 |
| anti-IL-12Rβ2 VHH clone 3CRH17 (VHH, not shown: small tags and cut ends, periplasmic extract) VHH: QVQLQESGGGLVQAGGSLVLSCAASGSAALIFLMSWYRQAPGKQRELVAEVSRYGSTTYADSVEGRFTISRDNAKNIVDLQMNSLKPEDTAVYYCKADQYYGDSLRSSWGRGTQVTVSS | 583 |

Task item: Identify dMFI associated with the binder anti-IL-12Rβ2 VHH clone 3CRH43 (VHH, not shown: small tags and cut ends, periplasmic extract) VHH: QVQLQESGGGSVQPGGSLRLSCAASGFTFSTSGMHWFRQAPGKGLEWVSSIGIIVDSSYYASSVKGRFTISRDNAKNIVYLQMNSLKSEDTAVYYCSKDPTGSSRGQGTQVTVSS
Reply: 1160
